System: Cryptococcus neoformans
measurement parameters: Concentration 32 ug.mL-1; ASSAY_TEST Inhibition of Fungal Growth; detection method Resazurin; Absorption (OD600-OD570); plate type 384well; NBS; CORNING #3640
Description: Antifungal activity against Cryptococcus neoformans H99 ATCC 208821 (CO-ADD:FG_002); MIC in YNB media using NBS plates, by Resazurin OD(600-570)
Potency and affinity values are given separately.
measured attribute: Inhibition (%)
// return numeric value only (unit: %, not printed)

Request the reported Inhibition associated with CC(C)(C)OC(=O)N1C(O)C2CCCC2N1S(=O)(=O)c1ccc([N+](=O)[O-])cc1 (stereo unspecified)
-8.39

Can you handle O=C(OCc1ccccc1)N1CC(Cc2ccccc2)C(O)O1 (stereo unspecified) next?
9.21

Can you handle O=C(OCc1ccccc1)N1OC(O)C2CCCCC21 (stereo unspecified) next?
-9.13

Can you handle CC1C(O)N(C(=O)OC(C)(C)C)N(S(=O)(=O)c2ccc([N+](=O)[O-])cc2)C1C (stereo unspecified) next?
-8.51

Can you handle CCCCCCCC1CN(S(=O)(=O)c2ccc(C)cc2)N(C(=O)OC(C)(C)C)C1O (stereo unspecified) next?
-7.05

Can you handle CCCCCCCC1CN(S(=O)(=O)c2ccc(C)cc2)N(C(=O)OC(C)(C)C)C1=O (stereo unspecified) next?
-13.28

Values compiled from ChEMBL document CHEMBL4513145.
